Data provenance is patent US9006450B2.

Measured IC50 accompanies every entry in the list below.
Target or system: human ACC2 (Homo sapiens, UniProt O00763)
Construct: made in house; host or cells: insect cells (baculoviral expression system)
Sequence (O00763 129-2458 limits assumed): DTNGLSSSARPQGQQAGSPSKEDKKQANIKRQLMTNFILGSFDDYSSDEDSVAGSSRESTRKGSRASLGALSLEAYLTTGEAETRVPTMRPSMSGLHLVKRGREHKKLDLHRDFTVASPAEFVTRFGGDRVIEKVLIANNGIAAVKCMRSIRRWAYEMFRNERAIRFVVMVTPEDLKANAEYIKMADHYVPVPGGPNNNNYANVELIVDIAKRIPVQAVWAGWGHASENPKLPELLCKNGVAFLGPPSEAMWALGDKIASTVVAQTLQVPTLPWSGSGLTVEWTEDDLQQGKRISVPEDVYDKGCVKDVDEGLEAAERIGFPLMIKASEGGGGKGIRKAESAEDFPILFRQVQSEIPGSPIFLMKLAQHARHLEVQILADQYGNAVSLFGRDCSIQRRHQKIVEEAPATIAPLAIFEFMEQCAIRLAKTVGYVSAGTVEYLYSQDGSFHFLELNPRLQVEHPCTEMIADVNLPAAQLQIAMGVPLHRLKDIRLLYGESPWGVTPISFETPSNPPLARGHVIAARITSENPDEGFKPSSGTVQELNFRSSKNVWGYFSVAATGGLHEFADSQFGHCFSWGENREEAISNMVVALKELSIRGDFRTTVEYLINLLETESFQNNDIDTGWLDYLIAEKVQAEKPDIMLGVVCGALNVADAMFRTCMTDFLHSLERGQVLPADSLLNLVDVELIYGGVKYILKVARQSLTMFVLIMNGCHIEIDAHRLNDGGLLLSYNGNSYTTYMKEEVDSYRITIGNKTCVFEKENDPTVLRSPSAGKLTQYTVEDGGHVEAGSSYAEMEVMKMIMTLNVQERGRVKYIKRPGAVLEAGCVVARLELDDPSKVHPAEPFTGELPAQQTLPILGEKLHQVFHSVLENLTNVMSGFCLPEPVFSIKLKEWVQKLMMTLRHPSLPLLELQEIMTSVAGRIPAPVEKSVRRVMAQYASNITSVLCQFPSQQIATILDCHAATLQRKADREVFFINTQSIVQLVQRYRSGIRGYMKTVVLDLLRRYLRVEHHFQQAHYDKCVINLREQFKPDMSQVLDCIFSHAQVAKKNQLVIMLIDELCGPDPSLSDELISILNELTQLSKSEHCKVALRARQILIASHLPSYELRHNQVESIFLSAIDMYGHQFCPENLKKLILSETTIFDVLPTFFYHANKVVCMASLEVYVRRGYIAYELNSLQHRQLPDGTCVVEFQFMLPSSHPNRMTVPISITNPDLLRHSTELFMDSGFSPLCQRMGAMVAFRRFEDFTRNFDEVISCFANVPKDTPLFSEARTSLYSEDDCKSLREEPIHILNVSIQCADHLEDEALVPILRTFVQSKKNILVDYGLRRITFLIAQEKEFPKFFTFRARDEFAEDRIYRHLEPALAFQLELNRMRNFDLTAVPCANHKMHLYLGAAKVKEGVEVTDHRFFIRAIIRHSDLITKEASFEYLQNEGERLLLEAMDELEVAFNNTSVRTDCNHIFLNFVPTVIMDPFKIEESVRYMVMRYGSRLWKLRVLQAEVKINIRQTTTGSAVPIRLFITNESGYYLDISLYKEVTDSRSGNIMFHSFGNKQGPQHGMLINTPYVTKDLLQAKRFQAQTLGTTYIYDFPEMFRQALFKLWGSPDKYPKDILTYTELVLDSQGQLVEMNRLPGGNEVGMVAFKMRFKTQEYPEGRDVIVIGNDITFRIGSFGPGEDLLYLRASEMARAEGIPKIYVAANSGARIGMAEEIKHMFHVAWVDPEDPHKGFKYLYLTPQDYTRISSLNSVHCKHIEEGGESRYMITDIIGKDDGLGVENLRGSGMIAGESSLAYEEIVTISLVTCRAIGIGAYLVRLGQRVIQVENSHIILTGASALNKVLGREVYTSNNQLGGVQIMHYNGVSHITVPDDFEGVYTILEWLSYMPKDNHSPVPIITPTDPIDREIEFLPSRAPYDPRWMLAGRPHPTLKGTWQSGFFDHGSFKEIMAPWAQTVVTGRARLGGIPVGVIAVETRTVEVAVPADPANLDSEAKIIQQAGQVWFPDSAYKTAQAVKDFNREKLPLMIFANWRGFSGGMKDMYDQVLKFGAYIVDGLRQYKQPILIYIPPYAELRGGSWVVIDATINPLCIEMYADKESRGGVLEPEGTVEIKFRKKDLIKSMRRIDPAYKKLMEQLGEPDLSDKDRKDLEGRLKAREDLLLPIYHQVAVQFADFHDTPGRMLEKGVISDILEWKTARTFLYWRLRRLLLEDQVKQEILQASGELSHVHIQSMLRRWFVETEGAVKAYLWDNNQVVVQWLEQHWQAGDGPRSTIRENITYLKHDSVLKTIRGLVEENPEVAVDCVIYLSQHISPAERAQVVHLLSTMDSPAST
Assay procedure: ACC2 assay, spectrophotometric 384 well assay (NADH-linked, coupled lactate dehydrogenase/pyruvate kinase)
Format: biochemical
Assay setup: ACC2 assay, hACC2 construct lacking 128 N-terminal amino acids, 25° C., 340 nm; read-out: IC50
Kindly provide the numeric value in nM only, without the unit symbol.

These solved cases illustrate the format of a correct answer.
{"columns": ["Molecule", "Unit abbrev", "Val"],
 "data": [
  ["CCCC(C)Oc1ccc(N2CCC(c3ccc([C@H](C)NC(C)=O)cc3)CC2)cc1OC (stereo partly drawn)", "nM", 840],
  ["COc1ccc(N2CCC(c3ccc([C@H](C)NC(C)=O)cc3)CC2)cc1C", "nM", 2100]
]}

Turning now to a further record.
Please fill in: IC50 reported for CC(=O)N[C@@H](C)c1ccc(C2CCN(c3ccnc(N(C)C4CCCC4)n3)CC2)cc1 = 350

====

Measured IC50 accompanies every entry in the list below.
Target or system: human ACC2 (Homo sapiens, UniProt O00763)
Construct: made in house; host or cells: insect cells (baculoviral expression system)
Assay procedure: ACC2 assay, spectrophotometric 384 well assay (NADH-linked, coupled lactate dehydrogenase/pyruvate kinase)
Format: biochemical
Assay setup: ACC2 assay, hACC2 construct lacking 128 N-terminal amino acids, 25° C., 340 nm; read-out: IC50
Kindly provide the numeric value in nM only, without the unit symbol.

These solved cases illustrate the format of a correct answer.
{"columns": ["Smiles input", "Result type", "Val"],
 "data": [
  ["CCCOc1ccc(N2CCC(c3ccc([C@H](C)NC(C)=O)cc3)CC2)c(C#N)n1", "IC50", 90],
  ["COCCN(C)C(=O)c1cnc(N2CCC(c3ccc([C@H](C)NC(C)=O)cc3)CC2)nc1", "IC50", 7100],
  ["CC(=O)N[C@@H](C)c1ccc(C2CCN(c3ncc(-c4ccc(OC(C)C)cc4)cn3)CC2)cc1", "IC50", 970]
]}

Turning now to a further record.
Please fill in: IC50 reported for CC(=O)N[C@@H](C)c1ccc(C2CCN(c3cc(Oc4ccccc4F)ncn3)CC2)cc1 = 240

====

Measured IC50 accompanies every entry in the list below.
Target or system: human ACC2 (Homo sapiens)
Construct: made in house; host or cells: insect cells (baculoviral expression system)
Assay procedure: ACC2 assay, spectrophotometric 384 well assay (NADH-linked, coupled lactate dehydrogenase/pyruvate kinase)
Assay type: biochemical
Assay setup: ACC2 assay, hACC2 construct lacking 128 N-terminal amino acids, 25° C., 340 nm; read-out: IC50
Kindly provide the numeric value in nM only, without the unit symbol.

{"columns": ["Smiles input", "Val"],
 "data": [
  ["CCOc1ccc(N2CCC(c3ccc([C@H](C)NC(=O)CC(=O)NC)cc3)CC2)cc1", 8900],
  ["CC(=O)N[C@@H](C)c1ccc(C2CCN(c3ccc(OC(C)C)c(C)c3)CC2)cc1", 570],
  ["CC(=O)N[C@@H](C)c1ccc(C2CCN(c3ccnc(OC(C)C)n3)CC2)cc1", 560],
  ["CC(=O)N[C@@H](C)c1ccc(C2CCN(c3ncc(C(=O)NC(C)C)cn3)CC2)cc1", 3600],
  ["C[C@H](NC(=O)N(C)C)c1ccc(C2CCN(c3ccc(OCC4CCC4)cc3)CC2)cc1", 60],
  ["CC(=O)N[C@@H](C)c1ccc(C2CCN(c3ncc(C(=O)N(C)c4ccc(C)cc4)cn3)CC2)cc1", 1800],
  ["CC(=O)N[C@@H](C)c1ccc(C2CCN(c3nc(Cl)cc4ccccc34)CC2)cc1", 970],
  ["CC(=O)N[C@@H](C)c1ccc(C2CCN(c3ncc(OCC4CC4)cc3F)CC2)cc1", 200]
]}

// assay human ACC2 (Homo sapiens), entry CC(=O)N[C@@H](C)c1ccc(C2CCN(c3ncc(Br)cn3)CC2)cc1 , IC50 value = 650

// assay human ACC2 (Homo sapiens), entry C[C@H](NC(=O)N(C)C)c1ccc(C2CCN(c3cc(OC4CCC4)ncn3)CC2)cc1 , IC50 value = 190

====

Measured IC50 accompanies every entry in the list below.
Target or system: human ACC2 (Homo sapiens)
Construct: made in house; host or cells: insect cells (baculoviral expression system)
Assay procedure: ACC2 assay, spectrophotometric 384 well assay (NADH-linked, coupled lactate dehydrogenase/pyruvate kinase)
Assay type: biochemical
Assay setup: ACC2 assay, hACC2 construct lacking 128 N-terminal amino acids, 25° C., 340 nm; read-out: IC50
Kindly provide the numeric value in nM only, without the unit symbol.

These solved cases illustrate the format of a correct answer.
{"columns": ["Smiles input", "Target or system", "IC50 (nM)"],
 "data": [
  ["CC(=O)N[C@@H](C)c1ccc(C2CCN(c3ccc4[nH]cc(C)c4c3)CC2)cc1", "human ACC2 (Homo sapiens)", 2200],
  ["CC(=O)N[C@@H](C)c1ccc(C2CCN(c3ccnc(OCC4(C)CC4)c3)CC2)cc1", "human ACC2 (Homo sapiens)", 80],
  ["CCCCOc1cc(N2CCC(c3ccc([C@H](C)NC(C)=O)cc3)CC2)ccn1", "human ACC2 (Homo sapiens)", 110]
]}

Please fill in: IC50 reported for CCCOc1ccc(N2CCC(c3ccc([C@H](C)NC(=O)N(C)C)cc3)CC2)c(C#N)c1 = 70

====

Target or system: human ACC2 (Homo sapiens, UniProt O00763)
Construct: made in house; host or cells: insect cells (baculoviral expression system)
Assay procedure: ACC2 assay, spectrophotometric 384 well assay (NADH-linked, coupled lactate dehydrogenase/pyruvate kinase)
Format: biochemical
Assay setup: ACC2 assay, hACC2 construct lacking 128 N-terminal amino acids, 25° C., 340 nm; read-out: IC50
Procedure: Spectrophotometric 384 Well Assay Malonyl CoA formation by acetyl CoA carboxylases is stoichometrically linked to the consumption of ATP. ACC2 activity is measured in a NADH-linked kinetic method measuring ADP generated during the ACC reaction using a coupled lactate dehydrogenase/pyruvate kinase reaction. For biological testing, a human ACC2 construct which lacks the 128 amino acids at the N-terminus for increased solubility (nt 385-6966 in Genbank entry AJ575592) is cloned. […]
Measured IC50 accompanies every entry in the list below.
Kindly provide the numeric value in nM only, without the unit symbol.

{"columns": ["Molecule", "Unit abbrev", "IC50"],
 "data": [
  ["COc1ccc2nc(N3CCC(c4ccc([C@H](C)NC(C)=O)cc4)CC3)ccc2c1", "nM", 990],
  ["CCCOc1ccc(N2CCC(c3ccc(CC(C)NC(C)=O)cc3)CC2)cc1 (centres unmarked)", "nM", 990],
  ["CC(=O)N[C@@H](C)c1ccc(C2CCN(c3ccc(OCC4CCCCO4)cc3)CC2)cc1 (some centres unmarked)", "nM", 990]
]}

// assay human ACC2 (Homo sapiens, UniProt O00763), entry CC(=O)N[C@@H](C)c1ccc(C2CCN(c3ncc(-c4cncc(C#N)c4)cn3)CC2)cc1 , IC50 value = 1100

// assay human ACC2 (Homo sapiens, UniProt O00763), entry CC(=O)N[C@@H](C)c1ccc(C2CCN(c3cc(NCCC(C)C)ncn3)CC2)cc1 , IC50 value = 4500

// assay human ACC2 (Homo sapiens, UniProt O00763), entry C[C@H](NC(=O)N(C)C)c1ccc(C2CCN(c3ncc(-c4ccccc4F)cn3)CC2)cc1 , IC50 value = 430

// assay human ACC2 (Homo sapiens, UniProt O00763), entry CC(=O)N[C@@H](C)c1ccc(C2CCN(c3ccc(OC(C)C)nc3)CC2)cc1 , IC50 value = 180

====

Measured IC50 accompanies every entry in the list below.
Target or system: human ACC2 (Homo sapiens, UniProt O00763)
Construct: made in house; host or cells: insect cells (baculoviral expression system)
Assay procedure: ACC2 assay, spectrophotometric 384 well assay (NADH-linked, coupled lactate dehydrogenase/pyruvate kinase)
Type: biochemical
Assay setup: ACC2 assay, hACC2 construct lacking 128 N-terminal amino acids, 25° C., 340 nm; read-out: IC50
Kindly provide the numeric value in nM only, without the unit symbol.

{"columns": ["Compound", "Val"],
 "data": [
  ["CCCC(C)Oc1ccc(N2CCC(c3ccc([C@H](C)NC(C)=O)cc3)CC2)cc1C (stereo partly shown)", 1000]
]}

Please fill in: IC50 reported for CCOc1ccc(-c2cnc(N3CCC(c4ccc([C@H](C)NC(C)=O)cc4)CC3)nc2)cc1C = 640

Please fill in: IC50 reported for CCOc1ccc(N2CCC(c3ccc([C@H](C)NC(=O)Nc4cncnc4)cc3)CC2)cc1 = 1500

Please fill in: IC50 reported for CCC(C)Oc1ccc(N2CCC(c3ccc([C@H](C)NC(C)=O)cc3)CC2)cc1Cl (stereo partly shown) = 300
